Molecular target: T1, recombinant human EGFR extracellular domain with 6xHis (human, UniProt P00533 25-645)
T1 construct: In-house produced; also called 6xHis EGFR ECD; soluble human EGFR ECD; not shown: 6xHis tag
Assay: SPR competition, competitor 1261
assay_readout: % inhibition (%)

binder | assay_readout | test_value
antibody 1347 (antibody, human IgG1, kappa, V domains shown, Chimeric IgG1 kappa) VH: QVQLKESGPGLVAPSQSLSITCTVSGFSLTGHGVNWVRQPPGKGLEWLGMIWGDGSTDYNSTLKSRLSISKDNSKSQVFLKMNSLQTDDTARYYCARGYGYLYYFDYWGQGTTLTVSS VL: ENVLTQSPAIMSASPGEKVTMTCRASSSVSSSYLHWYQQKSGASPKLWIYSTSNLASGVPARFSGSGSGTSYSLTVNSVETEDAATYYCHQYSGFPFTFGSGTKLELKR | % inhibition | -23
antibody 1260 (antibody, human IgG1, kappa, V domains shown, Chimeric IgG1 kappa) VH: QVQLKESGPGLVAPSQSLSITCTVSGFSLTTYGVHWVRQPPGKGLEWLGVIWAGGSTNYNSALMSRLSIKKDNSKSQVFLKMNSLQTDDTAMYYCARAYGYNFDYWGQGTTLTVSS VL: DIQMTQTTSSLSASLGDRVTISCSASQGITNYLNWYQQKPDGTVKLLIYYSSSLHSGVPSRFSGSGSGTDYSLTISNLEPEDIATYYCQQYSEIPYTFGGGTKLELKR | % inhibition | 97
antibody 1254 (antibody, human IgG1, kappa, V domains shown, Chimeric IgG1 kappa; also called mAb 1254) VH: EVQLVESGGGLVKPGGSLKLSCAASGFAYSTYDMSWVRQTPEKRLEWVAYISSGGDAAYYPDTVKGRFTISRDNAKNTLYLQMSSLKSEDTAMYYCARSRYGNYGDAMDYWGQGTSVTVSS VL: DVVMTQTPLSLPVSLGDQASISCRSSQSLVHSNGNTYLHWYLQKPGQSPKLLLYKVSNRFSGVPDRFSGSGSGTDFTLKISRVESEDLGVYFCSQNTHVYTFGGGTKLEIKR | % inhibition | 6
